assay: Therapeutic index, ratio of IC50 for human bone marrow cells to IC50 for human MV411 cells; format: cell-based, MV4-11; conditions: human bone marrow cells versus MV411 cells, read-out: Ratio IC50
REPORTED_ENDPOINT: selectivity ratio

O=C1C(C2=C(N3CC3)C(=O)c3ccccc3C2=O)=C(N2CC2)C(=O)c2ccccc21 has a reported selectivity ratio of 1.5 to 2

###

test: Therapeutic index, ratio of IC50 for human bone marrow cells to IC50 for human THP1 cells; assay type: cell-based, THP-1; conditions: human bone marrow cells versus THP1 cells, read-out: Ratio IC50
REPORTED_ENDPOINT: selectivity ratio

O=C1C(C2=C(N3CC3)C(=O)c3ccccc3C2=O)=C(N2CC2)C(=O)c2ccccc21 has a reported selectivity ratio of 1.5 to 2
